# Target: Aryl hydrocarbon receptor (Mus musculus)
# Sequence (P30561 whole entry): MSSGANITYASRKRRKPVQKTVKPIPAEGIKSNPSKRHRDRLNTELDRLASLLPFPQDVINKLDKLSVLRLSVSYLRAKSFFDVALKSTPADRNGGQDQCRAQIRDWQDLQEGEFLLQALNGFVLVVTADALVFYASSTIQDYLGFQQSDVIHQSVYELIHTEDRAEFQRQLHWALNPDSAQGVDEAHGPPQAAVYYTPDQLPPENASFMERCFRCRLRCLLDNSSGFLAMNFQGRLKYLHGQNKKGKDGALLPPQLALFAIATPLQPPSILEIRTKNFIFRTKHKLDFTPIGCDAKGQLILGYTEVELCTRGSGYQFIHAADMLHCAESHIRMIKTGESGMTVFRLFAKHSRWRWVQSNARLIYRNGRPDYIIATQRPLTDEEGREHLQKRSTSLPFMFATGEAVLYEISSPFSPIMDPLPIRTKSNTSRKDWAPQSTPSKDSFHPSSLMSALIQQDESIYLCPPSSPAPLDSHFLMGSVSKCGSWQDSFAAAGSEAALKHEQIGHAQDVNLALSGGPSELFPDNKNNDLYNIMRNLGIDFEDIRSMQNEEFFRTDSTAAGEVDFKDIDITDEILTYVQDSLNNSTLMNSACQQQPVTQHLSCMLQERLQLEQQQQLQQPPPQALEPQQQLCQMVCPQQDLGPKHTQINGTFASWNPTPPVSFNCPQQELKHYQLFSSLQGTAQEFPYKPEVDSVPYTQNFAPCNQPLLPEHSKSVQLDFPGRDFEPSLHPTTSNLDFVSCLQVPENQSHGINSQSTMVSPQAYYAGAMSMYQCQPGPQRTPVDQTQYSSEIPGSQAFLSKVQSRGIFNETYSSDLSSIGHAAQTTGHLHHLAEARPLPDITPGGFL
# Assay Name: Displacement of [3H]-TCDD from AhR in mouse Hepa1c1c7 cell cytosolic lysate by competitive binding assay
Readout Name: IC50 (µM)
Give bare numbers, in µM.

Field: example entries. Status: answers known.
Fc1cccc2[nH]ccc12	18.2
Brc1ccc2cc[nH]c2c1	43.4
O=C1Cc2ccc(Cl)cc2N1	7.4

Provide measured IC50 value, entry: Fc1cccc2cc[nH]c12 22.1

---

# Target: Aryl hydrocarbon receptor (Mus musculus)
# Assay Name: Displacement of [3H]-TCDD from AhR in mouse Hepa1c1c7 cell cytosolic lysate at 50 uM by competitive binding assay relative to control
# Format: subcellular, Cytosol
# Measurement Parameters: Hepa-1c1c7, mouse, read-out: Activity
Readout Name: inhibition at 50 µM

Brc1cccc2cc[nH]c12	> 70%
Fc1cccc2[nH]ccc12	> 70%

Provide measured inhibition at 50 µM value, entry: Fc1cccc2cc[nH]c12 > 70%
